# Experimental Target: UniProt P25103
# Sequence (P25103 whole entry): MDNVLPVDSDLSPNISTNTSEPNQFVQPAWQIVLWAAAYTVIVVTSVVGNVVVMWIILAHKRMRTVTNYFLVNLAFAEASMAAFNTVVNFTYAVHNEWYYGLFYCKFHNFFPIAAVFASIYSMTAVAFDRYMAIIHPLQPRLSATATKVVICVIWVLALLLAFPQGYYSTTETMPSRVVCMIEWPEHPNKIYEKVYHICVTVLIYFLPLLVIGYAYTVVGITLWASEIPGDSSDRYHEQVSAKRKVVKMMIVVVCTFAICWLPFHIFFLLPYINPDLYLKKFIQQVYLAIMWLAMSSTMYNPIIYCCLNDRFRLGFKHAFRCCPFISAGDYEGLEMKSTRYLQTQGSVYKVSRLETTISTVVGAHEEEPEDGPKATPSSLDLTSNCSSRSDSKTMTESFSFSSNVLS
# Assay Method Text: Displacement of [125I]-substance P from hNK1 receptor in chinese hamster ovarian (CHO) cells

| Test Smiles | Experimental Target | Value Units | IC50 |
| --- | --- | --- | --- |
| CS(=O)(=O)N1CCC2(CCN(C(=O)[C@H](COCc3ccc(Cl)c(Cl)c3)NCc3ccccc3)CC2)C1 | UniProt P25103 | µM | 2.5 |
| CS(=O)(=O)N(CC1CCN(C(=O)[C@H](COCc2ccc(Cl)c(Cl)c2)NCc2ccccc2)CC1)c1ccccc1 | UniProt P25103 | µM | 0.547 |
| CS(=O)(=O)Nc1ccccc1C1CCN(C(=O)[C@H](COCc2ccc(Cl)c(Cl)c2)NCc2ccccc2)CC1 | UniProt P25103 | µM | 0.017 |
| CS(=O)(=O)N1CC2(CCN(C(=O)[C@H](COCc3ccc(Cl)c(Cl)c3)NCc3ccccc3)CC2)c2ccccc21 | UniProt P25103 | µM | 0.001 |
| CS(=O)(=O)NCC1(c2ccccc2)CCN(C(=O)[C@H](COCc2ccc(Cl)c(Cl)c2)NCc2ccccc2)CC1 | UniProt P25103 | µM | 0.382 |
| CN(c1ccccc1C1CCN(C(=O)[C@H](COCc2ccc(Cl)c(Cl)c2)NCc2ccccc2)CC1)S(C)(=O)=O | UniProt P25103 | µM | 0.061 |
| Cc1ccccc1N1CCN(C(=O)[C@H](COCc2ccc(Cl)c(Cl)c2)NCc2ccccc2)CC1 | UniProt P25103 | µM | 0.558 |
| Cc1ccccc1C1CCN(C(=O)[C@H](COCc2ccc(Cl)c(Cl)c2)NCc2ccccc2)CC1 | UniProt P25103 | µM | 0.33 |
| COc1ccccc1N1CCN(C(=O)[C@H](COCc2ccc(Cl)c(Cl)c2)NCc2ccccc2)CC1 | UniProt P25103 | µM | 0.013 |
| COc1ccccc1C1CCN(C(=O)[C@H](COCc2ccc(Cl)c(Cl)c2)NCc2ccccc2)CC1 | UniProt P25103 | µM | 0.263 |
| O=C([C@H](COCc1ccc(Cl)c(Cl)c1)NCc1ccccc1)N1CCC2(CCc3ccccc32)CC1 | UniProt P25103 | µM | 0.602 |
| CS(=O)(=O)Nc1ccccc1N1CCN(C(=O)[C@H](COCc2ccc(Cl)c(Cl)c2)NCc2ccccc2)CC1 | UniProt P25103 | µM | 0.0048 |

Where do these numbers come from? They come from ChEMBL document CHEMBL1130887.
